System: SK-OV-3
TEST_DESCRIPTION: NCI tumour cell line growth inhibition, 48 h
Calls of active or inactive are those of the source. Rule as the data show it: active = GI50 up to about 1.1 µM and inactive = higher.
Provide the recorded GI50 for the entries that follow.

Query :: I would be grateful if you could share the reported GI50 for COC(=O)C(=O)C(CC(=O)Nc1ccc(C)cc1)C(=O)OC (centres undefined) .
Result :: > 100 µM (inactive)

Query :: I would be grateful if you could share the reported GI50 for COC(=O)C1Cc2c([nH]c3ccccc23)-c2[nH]c3ccccc3c2CC(NC(C)=O)C(=O)N2CCCC2C(=O)N1 (centres undefined) .
Result :: > 100 µM (inactive)

Query :: I would be grateful if you could share the reported GI50 for COc1cc2nc3c(=C(C#N)C#N)c4ccccc4n3c(=O)c2cc1OC .
Result :: > 100 µM (inactive)

Query :: I would be grateful if you could share the reported GI50 for Cc1ccc(C2=C(C#N)C(=O)N3CCN=C3S2)cc1 .
Result :: > 100 µM (inactive)

Query :: I would be grateful if you could share the reported GI50 for CCOC(=O)C(/C(=N/NC(=O)OC)C(=O)Nc1ccc(C(C)=O)cc1)c1cnc2ccccc2n1 (centres undefined) .
Result :: > 100 µM (inactive)

Query :: I would be grateful if you could share the reported GI50 for O=[N+]([O-])c1cc(-[n+]2cc([O-])on2)ccc1F .
Result :: 20.4 µM (inactive)

Query :: I would be grateful if you could share the reported GI50 for Clc1ccccc1C1=NN(c2ccccc2)C2c3ccccc3OCC12 (centres undefined) .
Result :: > 100 µM (inactive)

Query :: I would be grateful if you could share the reported GI50 for COC(=O)C1=CC2C(=O)c3ccccc3C1(c1ccccc1)N2C1CCCCC1 (centres undefined) .
Result :: 31 µM (inactive)

Query :: I would be grateful if you could share the reported GI50 for Cc1ccc(OP(=O)(Oc2ccc(C)cc2)N2C=Cc3ccccc3C2C#N)cc1 (centres undefined) .
Result :: > 100 µM (inactive)

Where these numbers come from: ChEMBL document CHEMBL1201862
